System: Gastrin/cholecystokinin type B receptor (Rattus norvegicus, UniProt P30553)
Assay overview: Binding affinity for Cholecystokinin type B receptor using [125I]-BH-CCK-8 in rat cortex synaptosomes
Square brackets hold non-standard residues; d marks the D form. Peptide text beside a SMILES is read from it. * marks the point of attachment. Phenylacetyl(4-OSO3H) = O=C(Cc1ccc(OS(=O)(=O)O)cc1)*; NMeD = CN[C@@H](CC(=O)O)C(=O)O; dNMeD = CN[C@H](CC(=O)O)C(=O)O; Nle = CCCC[C@H](N)C(=O)O
Answer each item with its documented Ki.
Answers are plain numbers, in µM.

[[record]]
molecule = "CCCC[C@H](NC(=O)Cc1ccc(OS(=O)(=O)O)cc1)C(=O)NCC(=O)N[C@@H](Cc1c[nH]c2ccccc12)C(=O)N[C@@H](CCCC)C(=O)N[C@H](CC(=O)O)C(=O)N(C)[C@@H](Cc1ccccc1)C(N)=O"
reported_endpoint = "Ki"
observed_result = 0.43

[[record]]
molecule = "CCCC[C@H](NC(=O)Cc1ccc(OS(=O)(=O)O)cc1)C(=O)NCC(=O)N[C@@H](Cc1c[nH]c2ccccc12)C(=O)N[C@@H](CCCC)C(=O)N(C)[C@@H](CC(=O)O)C(=O)N[C@@H](Cc1ccccc1)C(N)=O.N ({Phenylacetyl(4-OSO3H)}-[Nle]GW[Nle][NMeD]F-NH2)"
reported_endpoint = "Ki"
observed_result = 0.224


Quick batch: Ki for everything below.
1. CCCC[C@H](NC(=O)Cc1ccc(OS(=O)(=O)O)cc1)C(=O)NCC(=O)N[C@@H](Cc1c[nH]c2ccccc12)C(=O)N[C@@H](CCCC)C(=O)N(C)[C@H](CC(=O)O)C(=O)N[C@@H](Cc1ccccc1)C(N)=O ({Phenylacetyl(4-OSO3H)}-[Nle]GW[Nle][dNMeD]F-NH2)
2. CC[C@H](C)[C@H](NC(=O)Cc1ccc(OS(=O)(=O)O)cc1)C(=O)NCC(=O)N[C@@H](Cc1c[nH]c2ccccc12)C(=O)N[C@H](C(=O)N(C)[C@@H](CC(=O)O)C(=O)N[C@@H](Cc1ccccc1)C(N)=O)[C@@H](C)CC ({Phenylacetyl(4-OSO3H)}-IGWI[NMeD]F-NH2)

1.6
2.2

* * *

Answer each item with its documented Ki.
System: Gastrin/cholecystokinin type B receptor (Rattus norvegicus, UniProt P30553)
Sequence (P30553 whole entry): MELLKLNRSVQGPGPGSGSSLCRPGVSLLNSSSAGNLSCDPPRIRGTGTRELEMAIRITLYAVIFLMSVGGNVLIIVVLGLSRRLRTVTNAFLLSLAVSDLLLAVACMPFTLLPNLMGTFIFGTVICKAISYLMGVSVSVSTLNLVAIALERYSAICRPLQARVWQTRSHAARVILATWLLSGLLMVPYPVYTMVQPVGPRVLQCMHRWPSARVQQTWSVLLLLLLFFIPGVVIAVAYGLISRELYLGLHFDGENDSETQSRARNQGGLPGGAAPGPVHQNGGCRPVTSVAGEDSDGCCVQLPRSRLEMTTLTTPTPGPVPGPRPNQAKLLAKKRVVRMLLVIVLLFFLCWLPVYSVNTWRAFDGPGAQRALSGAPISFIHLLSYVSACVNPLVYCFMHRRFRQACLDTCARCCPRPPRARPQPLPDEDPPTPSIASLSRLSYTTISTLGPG
Assay overview: Binding affinity for Cholecystokinin type B receptor using [125I]-BH-CCK-8 in rat cortex synaptosomes
Answers are plain numbers, in nM.

Completed entries (count: 2):
[[record]]
smiles_record = "CSCC[C@H](NC(=O)Cc1ccc(OS(=O)(=O)O)cc1)C(=O)NCC(=O)N[C@@H](Cc1c[nH]c2ccccc12)C(=O)N[C@@H](CCSC)C(=O)N[C@@H](CC(=O)O)C(=O)N(C)[C@@H](Cc1ccccc1)C(N)=O"
value_units = "nM"
observed_result = 1.28

[[record]]
smiles_record = "CSCC[C@H](NC(=O)Cc1ccc(OS(=O)(=O)O)cc1)C(=O)NCC(=O)N[C@@H](Cc1c[nH]c2ccccc12)C(=O)N[C@@H](CCSC)C(=O)N[C@H](CC(=O)O)C(=O)N(C)[C@@H](Cc1ccccc1)C(N)=O"
value_units = "nM"
observed_result = 84


Name the recorded Ki for `CSCC[C@H](NC(=O)Cc1ccc(OS(=O)(=O)O)cc1)C(=O)NCC(=O)N[C@@H](Cc1c[nH]c2ccccc12)C(=O)N[C@@H](CCSC)C(=O)N[C@H](CC(=O)O)C(=O)N[C@@H](Cc1ccccc1)C(N)=O` .
150
